B1: ZNF24 (parent)
chain: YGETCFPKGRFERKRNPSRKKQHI

- Variants of: B1
- Assay details: protein stability index of a GFP-peptide fusion (GPS, HEK-293T) (PSI 1-6); higher = more stable;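 note: lentivirally expressed fusions sorted by FACS into six bins by GFP to DsRed ratio, PSI derived from sequencing read proportions per bin multiplied by bin number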
- Experimental conditions: c terminus: a fixed tail appended
# protein stability index >= 3 gives True, anything below gives False

T4Y: False

Is the recorded value of protein stability index equal to or greater than 3 for this variant? H23W
False

Is the recorded value of protein stability index equal to or greater than 3 for this variant? C5D
False

Is the recorded value of protein stability index equal to or greater than 3 for this variant? Y1T
True

Reference source: the supplement of paper PMC10567573
